target: P2X purinoceptor 7 (Homo sapiens); experiment: Antagonist activity at P2X7 receptor in IFN-gamma/LPS-differentiated human THP1 cells assessed as inhibition of BzATP-induced IL1-beta release at 10 uM treated 30 mins prior to BzATP addition by ELISA; assay type: functional, cell-based; details: THP-1
Sequence (Q99572 whole entry): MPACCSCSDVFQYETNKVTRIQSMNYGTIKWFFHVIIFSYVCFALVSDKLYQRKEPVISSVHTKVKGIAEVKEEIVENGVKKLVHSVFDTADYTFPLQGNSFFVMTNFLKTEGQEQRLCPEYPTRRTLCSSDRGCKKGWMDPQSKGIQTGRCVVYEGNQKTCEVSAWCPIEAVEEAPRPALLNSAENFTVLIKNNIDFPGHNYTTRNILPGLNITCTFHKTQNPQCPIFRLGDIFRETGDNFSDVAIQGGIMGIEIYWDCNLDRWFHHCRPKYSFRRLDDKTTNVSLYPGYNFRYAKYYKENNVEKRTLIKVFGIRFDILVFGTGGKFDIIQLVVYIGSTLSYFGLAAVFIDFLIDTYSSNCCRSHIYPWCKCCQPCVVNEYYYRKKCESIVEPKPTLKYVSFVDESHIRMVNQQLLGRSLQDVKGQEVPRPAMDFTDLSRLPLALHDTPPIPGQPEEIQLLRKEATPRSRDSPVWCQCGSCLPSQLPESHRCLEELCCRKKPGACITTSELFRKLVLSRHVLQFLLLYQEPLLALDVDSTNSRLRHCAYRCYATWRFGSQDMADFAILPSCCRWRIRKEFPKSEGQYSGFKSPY
value-type: inhibition (%)

a: Cc1ccc(CN2C[C@H](COC(=O)c3cccc4cnccc34)NC(=O)c3nn(CCc4ccccc4)cc32)cc1
b: CN([C@@H](Cc1ccc(OS(=O)(=O)c2cccc3cnccc23)cc1)C(=O)N1CCN(c2ccccc2)CC1)S(=O)(=O)c1cccc2cnccc12
Input: # returns the entry with the larger inhibition; inputs a and b Kindly state the label of the option you pick.
Output: b

1: O=C1N[C@@H](COC(=O)c2cccc3cnccc23)CN(Cc2ccccc2)c2cn(CCc3ccccc3)nc21
2: Cn1cc(CN2C[C@H](COC(=O)c3cn(C)c4ccccc34)NC(=O)c3nn(CCc4ccccc4)cc32)c2ccccc21
Input: Pick one, 1 or 2 : lowest reported inhibition. Answer by quoting the chosen item's label.
Output: 1
(1: 42%, 2: 65%)

A: O=C1N[C@@H](COC(=O)c2cccc3cnccc23)CNc2cn(CCc3ccccc3)nc21
B: O=C1N[C@@H](COC(=O)c2cccc3cnccc23)CN(Cc2ccc(F)cc2)c2cn(CCc3ccccc3)nc21
Input: When the recorded inhibition values are compared, which is smaller: that of A or that of B ? Mark your answer with the label of the selected entry.
Output: A
(A: 44%, B: 65%)

====

biological target: P2X purinoceptor 7 (Homo sapiens); experiment: Antagonist activity at human P2X7 receptor expressed in HEK293 cells assessed as inhibition of BzATP-induced fluorescent ethidium accumulation […]
value-type: IC50 (nM)

# example entries with known answers
Cn1cc(C(=O)OC[C@H]2CN(Cc3ccccc3)c3cn(CCc4ccccc4)nc3C(=O)N2)c2ccccc21    310
CN([C@@H](Cc1ccc(OS(=O)(=O)c2cccc3cnccc23)cc1)C(=O)N1CCN(c2ccccc2)CC1)S(=O)(=O)c1cccc2cnccc12    110
O=C1N[C@@H](COC(=O)c2cccc3cnccc23)CN(Cc2ccccc2)c2cn(CCc3ccccc3)nc21    1450
Cn1cc(C(=O)OC[C@H]2CN(Cc3ccc(Br)cc3)c3cn(CCc4ccccc4)nc3C(=O)N2)c2ccccc21    850
Cc1cc(O)ccc1CN1C[C@H](COC(=O)c2cn(C)c3ccccc23)NC(=O)c2nn(CCc3ccccc3)cc21    180
Cn1cc(CN2C[C@H](COC(=O)c3cn(C)c4ccccc34)NC(=O)c3nn(CCc4ccccc4)cc32)c2ccccc21    1070
Cc1cc(CN2C[C@H](COC(=O)c3cccc4cnccc34)NC(=O)c3nn(CCc4ccccc4)cc32)ccc1O    740
O=C1N[C@@H](COC(=O)c2cccc3cnccc23)CNc2cn(CCc3ccccc3)nc21    790

a: Cc1ccc(CN2C[C@H](COC(=O)c3cccc4cnccc34)NC(=O)c3nn(CCc4ccccc4)cc32)cc1
b: Cn1cc(C(=O)OC[C@H]2CN(Cc3ccc(Cl)cc3)c3cn(CCc4ccccc4)nc3C(=O)N2)c2ccccc21
Input: So which one has the bigger IC50 here, a or b ? API: response body contains the label of the selected item.
Output: a

I: O=C1N[C@@H](COC(=O)c2cccc3cnccc23)CN(Cc2ccc(F)cc2)c2cn(CCc3ccccc3)nc21
II: Cc1ccc(CN2C[C@H](COC(=O)c3cn(C)c4ccccc34)NC(=O)c3nn(CCc4ccccc4)cc32)cc1
Input: Smaller IC50 value, I vs II ? // caller expects the label of the chosen entry
Output: II

A: Cn1cc(C(=O)OC[C@H]2CN(Cc3ccc([N+](=O)[O-])cc3)c3cn(CCc4ccccc4)nc3C(=O)N2)c2ccccc21
B: CC(C)(C)OC(=O)N1CCC(CCn2cc3c(n2)C(=O)N[C@@H](Cc2ccccc2)CN3C(=O)C2CC2)CC1
C: CC(C)(C)OC(=O)N1CCC(CCn2cc3c(n2)C(=O)N[C@H](Cc2ccccc2)CN3C(=O)C2CC2)CC1
Input: Rank items: key IC50, increasing. I'd appreciate it if you listed the labels in the requested order.
Output: A, C, B

====

target: P2X purinoceptor 7 (Homo sapiens) (UniProt Q99572); assay: Antagonist activity at P2X7 receptor in IFN-gamma/LPS-differentiated human THP1 cells assessed as inhibition of BzATP-induced IL1-beta release at 10 uM treated 30 mins prior to BzATP addition by ELISA; format: functional, cell-based; settings: THP-1
Sequence (Q99572 whole entry): as above
value-type: inhibition (%)

Cn1cc(C(=O)OC[C@H]2CN(Cc3ccc(Cl)cc3)c3cn(CCc4ccccc4)nc3C(=O)N2)c2ccccc21    55
Cc1cc(O)ccc1CN1C[C@H](COC(=O)c2cn(C)c3ccccc23)NC(=O)c2nn(CCc3ccccc3)cc21    37
Cn1cc(C(=O)OC[C@H]2CN(Cc3ccc(Br)cc3)c3cn(CCc4ccccc4)nc3C(=O)N2)c2ccccc21    50

P: Cn1cc(C(=O)OC[C@H]2CN(Cc3ccccc3)c3cn(CCc4ccccc4)nc3C(=O)N2)c2ccccc21
Q: Cc1cc(CN2C[C@H](COC(=O)c3cccc4cnccc34)NC(=O)c3nn(CCc4ccccc4)cc32)ccc1O
Input: # query: argmin of inhibition over P and Q Indicate which entry you chose by stating its label.
Output: Q
